study.target: IRAK4 (Homo sapiens (Human), UniProt Q9NWZ3)
protocol.details: IRAK4 Degradation HiBiT Assay
study.conditions: read-out: Cellular IRAK4 HiBiT: DC50; Table 5; multiple runs; HiBiT-tagged Jurkat cells, 4 hrs
Sequence (Q9NWZ3 whole entry): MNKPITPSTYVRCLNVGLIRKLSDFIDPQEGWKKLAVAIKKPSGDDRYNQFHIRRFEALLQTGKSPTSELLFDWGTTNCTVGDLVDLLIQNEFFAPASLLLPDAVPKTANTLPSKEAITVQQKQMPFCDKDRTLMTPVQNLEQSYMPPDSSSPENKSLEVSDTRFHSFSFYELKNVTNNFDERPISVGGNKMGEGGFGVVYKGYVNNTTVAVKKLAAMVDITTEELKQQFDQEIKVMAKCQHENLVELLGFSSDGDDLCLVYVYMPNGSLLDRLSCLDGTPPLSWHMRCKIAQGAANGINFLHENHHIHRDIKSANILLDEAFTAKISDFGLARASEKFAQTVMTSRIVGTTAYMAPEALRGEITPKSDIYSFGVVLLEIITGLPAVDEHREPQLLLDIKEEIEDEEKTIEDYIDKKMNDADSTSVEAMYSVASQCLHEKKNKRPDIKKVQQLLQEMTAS
reported.metric: DC50 (nM)

CNc1cc(-c2ccc3cc(C#N)cnn23)ncc1-c1nnc(N2CCC(NC(=O)COc3cc(-c4scnc4C)ccc3CNC(=O)[C@@H]3C[C@@H](O)CN3C(=O)[C@@H](NC(=O)C3(F)CC3)C(C)(C)C)CC2)s1 [Example 97]
265

[A] CNc1cc(-c2ccc3cc(C#N)cnn23)ncc1-c1nnc([C@H]2CC[C@H](NC(=O)CC(C)(C)C(=O)N[C@H](C(=O)N3C[C@H](O)C[C@H]3C(=O)N[C@@H](C)c3ccc(-c4scnc4C)cc3)C(C)(C)C)CC2)s1 [Example 154]
[B] CC(C)Nc1cc(-c2ccc3cc(C#N)cnn23)ncc1-c1nnc(N2CCN(C(=O)CN3CCC4(CC3)CN(c3ccc5c(c3)C(=O)N(C3CCC(=O)NC3=O)C5=O)C4)CC2)s1 (stereo not shown) [Example 15]
Q) Response body: label of entry with the larger DC50; valid values A , B . Answer = label.
A) A

[a] CNc1cc(-c2ccc3cc(C#N)cnn23)ncc1-c1nnc([C@H]2CC[C@H](N(C)C(=O)CCC(=O)N[C@H](C(=O)N3C[C@H](O)C[C@H]3C(=O)N[C@@H](C)c3ccccc3)C(C)(C)C)CC2)s1 [Example 174]
[b] CNc1cc(-c2ccc3cc(C#N)cnn23)ncc1-c1nnc(C23CCC(NC(=O)CN4CCC5(CC4)CN(c4ccc6c(c4)C(=O)N(C4CCC(=O)NC4=O)C6=O)C5)(CC2)CC3)s1 (stereo not shown) [Example 104]
Q) Smaller DC50 value? Options are a and b Answer = label.
A) b

[A] CNc1cc(-c2ccc3cc(C#N)cnn23)ncc1-c1nnc(N2CCN(CC3CCN(c4ccc(C(=O)NC5CCC(=O)NC5=O)nc4)CC3)CC2)s1 (stereo not shown) [Example 161]
[B] CNc1cc(-c2ccc3cc(C#N)cnn23)ncc1-c1nnc([C@H]2CC[C@H](N(C)C(=O)C[C@H](NC(=O)[C@@H]3C[C@@H](O)CN3C(=O)C(c3cc(C)no3)C(C)C)c3ccc(-c4scnc4C)cc3)CC2)s1 (stereo partly shown) [Example 191]
Q) Smaller DC50 value? Options are A and B Answer = label.
A) A

---

study.target: UniProt:Q9NWZ3
protocol.details: IRAK4 Biochemical HTRF Kinase Assay
study.conditions: Table 4; read-out: IRAK4 HTRF biochemical: IC50
Protocol: IRAK4 Biochemical HTRF Kinase Assay The binding capacities of certain bifunctional compounds of Formula (I) were determined using the CisBio HTRF KinEASE STK S1 Kit (#62ST1PEB, contains 5× Kinase buffer, 1× Detection Buffer, anti-phospho-serine/threonine-cryptate, Streptavidin-XL665, and STK-S1), which measures the phosphorylation of a biotinylated peptide substrate by IRAK4, according to the manufacturer's protocol. […]
Sequence (Q9NWZ3 whole entry, species assumed): as the sequence (Q9NWZ3 whole entry) above
reported.metric: IC50 (nM)

See these solved cases before continuing.
CNc1cc(-c2ccc3cc(C#N)cnn23)ncc1-c1nnc([C@H]2CC[C@H](NC(=O)CCCCCCCNc3ccc4c(c3)C(=O)N(C3CCC(=O)NC3=O)C4=O)CC2)s1 (stereo partly drawn)
1.61
CC(C)Nc1cc(-c2ccc3cc(C#N)cnn23)ncc1-c1nnc(N2CCN(C(=O)CCCCCNc3cccc4c3C(=O)N(C3CCC(=O)NC3=O)C4=O)CC2)s1 (stereo not drawn)
2.9
N#Cc1cnn2c(-c3cc(NC4CCOCC4)c(-c4nnc(C56CCC(NC(=O)CCOCCOCCOCCNc7cccc8c7C(=O)N(C7CCC(=O)NC7=O)C8=O)(CC5)CC6)s4)cn3)ccc2c1 (stereo not drawn)
1.6
CC(C)Nc1cc(-c2ccc3cc(C#N)cnn23)ncc1-c1nnc([C@H]2CC[C@H](NC(=O)CCOCCOCCNc3cccc4c3C(=O)N(C3CCC(=O)NC3=O)C4=O)CC2)s1 (stereo partly drawn)
2.3
Cc1ncsc1-c1ccc(CNC(=O)[C@@H]2C[C@@H](O)CN2C(=O)[C@@H](NC(=O)C2(F)CC2)C(C)(C)C)c(OCCCCCCCCCC(=O)N2CCN(c3nnc(-c4cnc(-c5ccc6cc(C#N)cnn56)cc4NC(C)C)s3)CC2)c1
702

[a] CC(C)Nc1cc(-c2ccc3cc(C#N)cnn23)ncc1-c1nnc(N2CCN(CCCc3ccc4c(c3)CN(C3CCC(=O)NC3=O)C4=O)CC2)s1 (stereo not drawn)
[b] Cc1ncsc1-c1ccc(CNC(=O)[C@@H]2C[C@@H](O)CN2C(=O)[C@@H](NC(=O)C2(F)CC2)C(C)(C)C)c(OCCCCCC(=O)N2CCN(c3nnc(-c4cnc(-c5ccc6cc(C#N)cnn56)cc4NC(C)C)s3)CC2)c1
Q) Response body: label of entry with the larger IC50; valid values a , b . Answer = label.
A) b
(b: 17.3 nM, a: 0.3 nM)

Cited source: patent US12528814B2
